# Lookup of reported inhibition keyed by entry
- measured-on: UniProtKB P18031
- Sequence (whole entry): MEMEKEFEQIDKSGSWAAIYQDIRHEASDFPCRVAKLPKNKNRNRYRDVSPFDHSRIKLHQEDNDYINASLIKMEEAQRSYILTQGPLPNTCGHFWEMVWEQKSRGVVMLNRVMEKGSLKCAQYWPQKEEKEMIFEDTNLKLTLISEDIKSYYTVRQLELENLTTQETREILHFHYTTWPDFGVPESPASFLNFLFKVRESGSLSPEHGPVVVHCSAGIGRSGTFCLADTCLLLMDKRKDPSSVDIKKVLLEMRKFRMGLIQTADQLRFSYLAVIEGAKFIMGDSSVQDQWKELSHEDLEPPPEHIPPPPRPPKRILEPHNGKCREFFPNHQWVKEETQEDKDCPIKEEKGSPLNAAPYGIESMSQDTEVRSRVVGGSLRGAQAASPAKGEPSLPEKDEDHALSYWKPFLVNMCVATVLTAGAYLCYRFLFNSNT
- assay-overview: Inhibition of human recombinant PTP1B catalytic domain at 20 ug/mL
State just the number; it will be interpreted in %.

# smiles-str, inhibition (%)
records = [
    ("O=C1C=CC(=O)C([C@@H]2O[C@H](Cn3cc(COC(=O)c4cccc(C(=O)OCc5cn(C[C@H]6O[C@@H](C7=CC(=O)C=CC7=O)[C@H](OC(=O)c7ccccc7)[C@@H](OC(=O)c7ccccc7)[C@@H]6OC(=O)c6ccccc6)nn5)c4)nn3)[C@@H](OC(=O)c3ccccc3)[C@H](OC(=O)c3ccccc3)[C@H]2OC(=O)c2ccccc2)=C1", 95.8),
]

# input for lookup
Ask: Any idea what inhibition was measured for `COc1ccc(OC)c([C@@H]2O[C@H](Cn3cc(COC(=O)c4cccc(C(=O)OCc5cn(C[C@H]6O[C@@H](c7cc(OC)ccc7OC)[C@H](OC(=O)c7ccccc7)[C@@H](OC(=O)c7ccccc7)[C@@H]6OC(=O)c6ccccc6)nn5)c4)nn3)[C@@H](OC(=O)c3ccccc3)[C@H](OC(=O)c3ccccc3)[C@H]2OC(=O)c2ccccc2)c1` ?
Result: 97.8

----------
- measured-on: UniProt:P18031
- Sequence (whole entry): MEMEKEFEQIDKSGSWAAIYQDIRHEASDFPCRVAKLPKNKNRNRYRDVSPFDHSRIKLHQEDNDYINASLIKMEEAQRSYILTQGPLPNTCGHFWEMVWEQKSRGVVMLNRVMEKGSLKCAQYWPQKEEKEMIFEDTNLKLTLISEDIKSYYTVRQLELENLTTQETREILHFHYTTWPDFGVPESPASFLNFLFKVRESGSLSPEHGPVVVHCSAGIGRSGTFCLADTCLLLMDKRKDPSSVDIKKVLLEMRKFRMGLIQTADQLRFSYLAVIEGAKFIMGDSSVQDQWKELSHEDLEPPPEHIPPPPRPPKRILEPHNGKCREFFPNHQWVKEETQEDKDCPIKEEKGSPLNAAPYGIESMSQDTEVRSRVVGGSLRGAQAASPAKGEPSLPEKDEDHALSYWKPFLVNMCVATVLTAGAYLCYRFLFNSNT
- assay-overview: Inhibition of human recombinant PTP1B catalytic domain at 20 ug/mL
endpoint: inhibition (%)
State just the number; it will be interpreted in %.

Recorded inhibition, per entry:
# smiles-str, inhibition / %
records = [
    ("O=C1C=CC(=O)C([C@@H]2O[C@H](Cn3cc(COC(=O)c4cccc(C(=O)OCc5cn(C[C@H]6O[C@@H](C7=CC(=O)C=CC7=O)[C@H](OC(=O)c7ccccc7)[C@@H](OC(=O)c7ccccc7)[C@H]6OC(=O)c6ccccc6)nn5)c4)nn3)[C@H](OC(=O)c3ccccc3)[C@H](OC(=O)c3ccccc3)[C@H]2OC(=O)c2ccccc2)=C1", 95.5),
    ("COc1cc([C@@H]2O[C@H](CN3C=C(COC(=O)c4cccc(C(=O)OCC5=CN(C[C@H]6O[C@@H](c7cc(OC)c8ccccc8c7OC)[C@H](OC(C)=O)[C@@H](OC(C)=O)[C@@H]6OC(C)=O)NN5)c4)NN3)[C@@H](OC(C)=O)[C@H](OC(C)=O)[C@H]2OC(C)=O)c(OC)c2ccccc12", 12.5),
]

# input for lookup
Ask: Any idea what inhibition was measured for `COc1ccc(OC)c([C@@H]2O[C@H](Cn3cc(COC(=O)c4cccc(C(=O)OCc5cn(C[C@H]6O[C@@H](c7cc(OC)ccc7OC)[C@H](OC(=O)c7ccccc7)[C@@H](OC(=O)c7ccccc7)[C@H]6OC(=O)c6ccccc6)nn5)c4)nn3)[C@H](OC(=O)c3ccccc3)[C@H](OC(=O)c3ccccc3)[C@H]2OC(=O)c2ccccc2)c1` ?
Result: 98.5

----------
- measured-on: Tyrosine-protein phosphatase non-receptor type 1 (Homo sapiens) (UniProt P18031)
- assay-overview: Inhibition of human recombinant PTP1B catalytic domain at 20 ug/mL
endpoint: inhibition (%)
State just the number; it will be interpreted in %.

Recorded inhibition, per entry:
# smiles-str, unit, inhibition
rows = [
    ("CC(=O)O[C@@H]1[C@@H](OC(C)=O)[C@H](C2=CC(=O)c3ccccc3C2=O)O[C@H](Cn2cc(COC(=O)c3cccc(C(=O)OCc4cn(C[C@H]5O[C@@H](C6=CC(=O)c7ccccc7C6=O)[C@H](OC(C)=O)[C@@H](OC(C)=O)[C@@H]5OC(C)=O)nn4)c3)nn2)[C@H]1OC(C)=O", "%", 8.5),
    ("COc1cc([C@@H]2O[C@H](CN3C=C(COC(=O)c4cccc(C(=O)OCC5=CN(C[C@H]6O[C@@H](c7cc(OC)c8ccccc8c7OC)[C@H](OC(C)=O)[C@@H](OC(C)=O)[C@H]6OC(C)=O)NN5)c4)NN3)[C@H](OC(C)=O)[C@H](OC(C)=O)[C@H]2OC(C)=O)c(OC)c2ccccc12", "%", 7.5),
]

# input for lookup
Ask: Any idea what inhibition was measured for `CC(=O)O[C@H]1[C@@H](OC(C)=O)[C@@H](Cn2cc(COC(=O)c3cccc(C(=O)OCc4cn(C[C@H]5O[C@@H](C6=CC(=O)c7ccccc7C6=O)[C@H](OC(C)=O)[C@@H](OC(C)=O)[C@H]5OC(C)=O)nn4)c3)nn2)O[C@@H](C2=CC(=O)c3ccccc3C2=O)[C@@H]1OC(C)=O` ?
Result: 0.8

----------
- measured-on: Tyrosine-protein phosphatase non-receptor type 1 (Homo sapiens)
- assay-overview: Inhibition of human recombinant PTP1B catalytic domain
endpoint: IC50 (nM)
State just the number; it will be interpreted in nM.

# smiles-str, endpoint, measured
data = [
    ("COc1ccc(OC)c([C@@H]2O[C@H](Cn3cc(COC(=O)c4cccc(C(=O)OCc5cn(C[C@H]6O[C@@H](c7cc(OC)ccc7OC)[C@H](OC(=O)c7ccccc7)[C@@H](OC(=O)c7ccccc7)[C@H]6OC(=O)c6ccccc6)nn5)c4)nn3)[C@H](OC(=O)c3ccccc3)[C@H](OC(=O)c3ccccc3)[C@H]2OC(=O)c2ccccc2)c1", "IC50", 880),
    ("O=C1C=CC(=O)C([C@@H]2O[C@H](Cn3cc(COC(=O)c4cccc(C(=O)OCc5cn(C[C@H]6O[C@@H](C7=CC(=O)C=CC7=O)[C@H](OC(=O)c7ccccc7)[C@@H](OC(=O)c7ccccc7)[C@@H]6OC(=O)c6ccccc6)nn5)c4)nn3)[C@@H](OC(=O)c3ccccc3)[C@H](OC(=O)c3ccccc3)[C@H]2OC(=O)c2ccccc2)=C1", "IC50", 620),
    ("CC(=O)OC[C@H]1O[C@@H](C2=CC(=O)C=CC2=O)[C@H](OC(C)=O)[C@@H](OC(C)=O)[C@@H]1OC(C)=O", "IC50", 4850),
    ("COc1ccc(OC)c([C@@H]2O[C@H](Cn3cc(COC(=O)c4cccc(C(=O)OCc5cn(C[C@H]6O[C@@H](c7cc(OC)ccc7OC)[C@H](OC(=O)c7ccccc7)[C@@H](OC(=O)c7ccccc7)[C@@H]6OC(=O)c6ccccc6)nn5)c4)nn3)[C@@H](OC(=O)c3ccccc3)[C@H](OC(=O)c3ccccc3)[C@H]2OC(=O)c2ccccc2)c1", "IC50", 870),
]

# input for lookup
Ask: Any idea what IC50 was measured for `O=C1C=CC(=O)C([C@@H]2O[C@H](Cn3cc(COC(=O)c4cccc(C(=O)OCc5cn(C[C@H]6O[C@@H](C7=CC(=O)C=CC7=O)[C@H](OC(=O)c7ccccc7)[C@@H](OC(=O)c7ccccc7)[C@H]6OC(=O)c6ccccc6)nn5)c4)nn3)[C@H](OC(=O)c3ccccc3)[C@H](OC(=O)c3ccccc3)[C@H]2OC(=O)c2ccccc2)=C1` ?
Result: 720

FYI, the data here is from ChEMBL document CHEMBL1142536.
